Cited source for all entries: patent US5627270A

- method: Plasma vancomycin after ileal co-administration in the rat
- run-parameters: rat, in vivo, 5 mg
quantity-name: Cmax

Quick check: Cmax of "CN[C@H](CC(C)C)C(=O)N[C@H]1C(=O)N[C@@H](CC(N)=O)C(=O)N[C@H]2C(=O)N[C@H]3C(=O)N[C@H](C(=O)N[C@H](C(=O)O)c4cc(O)cc(O)c4-c4cc3ccc4O)[C@H](O)c3ccc(c(Cl)c3)Oc3cc2cc(c3O[C@@H]2O[C@H](CO)[C@@H](O)[C@H](O)[C@H]2O[C@H]2C[C@](C)(N)[C@H](O)[C@H](C)O2)Oc2ccc(cc2Cl)[C@H]1O" ?
5000 to 10000 ng/mL
